protocol_summary: Pharmacokinetic study after IP administration
Format: in vivo, male C57BL/6 mice
run_conditions: male, C57BL/6, mouse, in vivo, 3 mg/kg, 3 mg/kg ip, 4 h; read-out: Mean concentration in mouse plasma

- compound: "O=C(NC12CC3CC(Cl)(CC(C1)c1ccccc13)C2)N[C@H]1CC[C@H](Oc2ccc(C(=O)O)cc2)CC1 [Compound 22]"
  unit_tag: "ng/mL"
  concentration at 4 h: 1520

* * *

protocol_summary: Pharmacokinetic study after IP administration
Type: in vivo, male C57BL/6 mice
run_conditions: male, C57BL/6, mouse, in vivo, 3 mg/kg, 3 mg/kg ip, 0.5 h; read-out: Mean concentration in mouse plasma
assay_readout: concentration at 0.5 h (ng/mL)

- mol_smiles: "O=C(NC12CC3CC(Cl)(CC(C1)c1ccccc13)C2)N[C@H]1CC[C@H](Oc2ccc(C(=O)O)cc2)CC1"
  assay_readout: "concentration at 0.5 h"
  test_value: 1620

* * *

system: rat sEH (Rattus norvegicus)
Sequence (P80299 1-554): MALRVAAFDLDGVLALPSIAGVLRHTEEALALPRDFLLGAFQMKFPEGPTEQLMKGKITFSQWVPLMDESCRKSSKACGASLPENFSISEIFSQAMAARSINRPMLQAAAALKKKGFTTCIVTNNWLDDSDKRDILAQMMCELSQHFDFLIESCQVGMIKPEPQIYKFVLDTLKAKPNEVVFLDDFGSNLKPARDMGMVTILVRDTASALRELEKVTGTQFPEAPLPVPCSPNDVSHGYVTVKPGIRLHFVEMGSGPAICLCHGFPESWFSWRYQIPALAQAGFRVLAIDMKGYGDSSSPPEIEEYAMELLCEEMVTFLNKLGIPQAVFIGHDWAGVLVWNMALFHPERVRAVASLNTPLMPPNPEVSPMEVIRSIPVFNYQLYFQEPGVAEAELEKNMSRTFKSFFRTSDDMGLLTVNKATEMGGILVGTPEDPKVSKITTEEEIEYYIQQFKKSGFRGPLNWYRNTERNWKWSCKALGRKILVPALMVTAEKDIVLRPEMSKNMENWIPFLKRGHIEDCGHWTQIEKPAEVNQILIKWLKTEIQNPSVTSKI
protocol_summary: sEH inhibition, fluorescent-based assay (CMNPC substrate)
run_conditions: purified recombinant enzyme, average of three replicates
Protocol: The IC50 values reported herein were determined using a fluorescent-based assay (CMNPC as substrate).[16] The fluorescent assay was used with purified recombinant human, mouse, or rat sEH proteins. The enzymes were incubated at 30 °C with the inhibitors ([I]final = 0.4–100,000 nM) for 5 min in 100 mM sodium phosphate buffer (200 μL, pH 7.4) containing 0.1 mg/mL of BSA and 1% of DMSO. The substrate (CMNPC) was then added ([S]final = 5 μM). […]
assay_readout: IC50 (nM)

- mol_smiles: "O=C(NC12CC3CC(F)(CC(C1)c1ccccc13)C2)N[C@H]1CC[C@H](Oc2ccc(C(=O)O)cc2)CC1"
  test_value: 0.4
- mol_smiles: "CC12CC3CC(NC(=O)N[C@H]4CC[C@H](Oc5ccc(C(=O)O)cc5)CC4)(CC(C1)c1ccccc13)C2"
  test_value: 0.4

* * *

protocol_summary: Pharmacokinetic study after IP administration
Assay type: in vivo, male C57BL/6 mice
run_conditions: male, C57BL/6, mouse, in vivo, 3 mg/kg, 3 mg/kg ip, 4 h; read-out: Total Concentration in mouse plasma, individual mice
Protocol: During the experimental procedure, animals were identified with a permanent marker (tail code numbers). […] They underwent a period of at least 5 days of observation and acclimatization between the date of arrival and the start of the procedure. […] Diet was analyzed by the manufacturer to detect possible contaminants. […] Pharmacokinetics parameters were calculated with Phoenix 64 (WinNonlin).
assay_readout: concentration at 4 h (ng/mL)

- compound: "O=C(NC12CC3CC(Cl)(CC(C1)c1ccccc13)C2)N[C@H]1CC[C@H](Oc2ccc(C(=O)O)cc2)CC1 [Compound 22]"
  test_value: 1240
